All figures here come from patent US20230235078A1.

biological target: T1, Human DDR1 extracellular domain (ECD) protein (human, UniProt Q08345 21-417); assay: BLI (Octet 96-Red), antibody on protein A biosensors, recombinant DDR1 0.1-200 nM, 1:1 fit
T1 construct: also called recombinant human DDR1 ECD; huDDR1 ECD; not shown: 6xHIS-tag
T1 sequence (Q08345 21-417): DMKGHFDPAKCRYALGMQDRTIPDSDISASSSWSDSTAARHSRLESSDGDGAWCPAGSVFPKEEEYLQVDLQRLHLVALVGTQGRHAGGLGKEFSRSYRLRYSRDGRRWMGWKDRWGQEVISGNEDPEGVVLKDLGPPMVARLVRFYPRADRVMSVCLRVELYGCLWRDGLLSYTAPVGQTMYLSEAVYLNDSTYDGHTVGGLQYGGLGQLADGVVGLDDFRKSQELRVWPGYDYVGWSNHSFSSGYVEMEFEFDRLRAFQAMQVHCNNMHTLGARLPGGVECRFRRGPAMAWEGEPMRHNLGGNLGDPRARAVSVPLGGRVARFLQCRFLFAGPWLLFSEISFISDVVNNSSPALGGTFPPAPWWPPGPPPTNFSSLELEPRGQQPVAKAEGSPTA
The binders listed here are annotated with their kon.
Reply with just the number (in M⁻¹ s⁻¹).

DDR1-9 (antibody, V domains shown, Rabbit variable domains; also called anti-huDDR1 antibody #9; DDR1-9K/DDR1-9H) VH: QSLEESGGRLVTPGTPLTLTCTASGFSLNRYYMLWVRQAPGEGLEWIGTISYGDTTYYASWAKGRFTISKTSTTVDLKMTSPTTEDTATYFCARADTGDNGYLGLQLWGPGTLVTVSS VL: ELVMTQTPASVEAAVGGTVTIKCQASQSIGSVLAWYQQKPGQRPKLLISGVFDLASGVPSRFKGSGSGTEFTLTISDLECADAATYYCQYIPYGSSPFGGGTEVVVK; 311000

The binder listed as DDR1-3 (antibody, V domains shown, Rabbit variable domains; also called anti-huDDR1 antibody #3; DDR1-3K/DDR1-3H) VH: QSVKESGGRLVTPGTPLTLTCTVSGIDLSSYAMSWVRQAPGKGLEWIGTINIGGGTWDATWARGRFTISRTSTTVDLKITSPTIGDTATYFCARDVDAHTLTYFTLWGPGTLVTISS VL: ELVLTQTPASVSEPVGGTVTIKCQASQTISSWLSWYQQKPGQPPKLLIYYAFNLASGVPSRFKGSGSGTEFTLTISDLECADAATYYCQQGISSSNVDNVFGGGTEVVVK shows kon equal to 1.73e+06

The binder listed as DDR1-33 (antibody, V domains shown, Rabbit variable domains; also called anti-huDDR1 #33 antibody; DDR1-33K/DDR1-33H) VH: QSVEESGGRLVTPGGSLTLTCTVSGFSLSSYDMSWVRQAPGKGLEWIGISWNSGFVDYASWAKGRFSISKTSTTVDLKITSPTTEDTATYFCARLGADDIYYFNLWGPGTLVTISS VL: ELVMTQTPASVEAAVGGTVTIKCQASETISSRLAWYQQKPGQPPKLLIYQASKLPSGVPSRFKGTGSGTEYTLTISDLECADAATYYCQGCYYGGGSFYDSAFGGGTEVVVK shows kon equal to 619000

The binder listed as DDR1-14 (antibody, V domains shown, Rabbit variable domains; also called anti-huDDR1 antibody #14; DDR1-14K/DDR1-14H) VH: QSVKESGGRLVTPGTPLTLTCTVSGIDLSYYAMSWVRQAPGKGLEYIGIINGRGDTGYATWAKGRFTISKTSTTVDLRITSPTIEDTATYFCAREDSAIPFIVGNYYGMDLWGPGTLVTVSS VL: ELDMTQTPASVSEPVGGTVTIKCQASQSISSYLAWYQQKPGQPPKRLIFEASTLASGVPSRFSGSGSGTDFTLTISDLECADAATYYCQNNNGFSGSNFNNFGGGTEVEIK shows kon equal to 202000
